Here the recorded HuH7/EMCV Antiviral activity relative to huIFN-alpha 2b is given for each entry.
Molecular target: T1, interferon-alpha receptor (type I interferon receptor comprising receptor subunits IFNAR-2 and IFNAR-1) (human, UniProt P17181 28-557; P48551 27-515)
T1 sequence (looked up) 1: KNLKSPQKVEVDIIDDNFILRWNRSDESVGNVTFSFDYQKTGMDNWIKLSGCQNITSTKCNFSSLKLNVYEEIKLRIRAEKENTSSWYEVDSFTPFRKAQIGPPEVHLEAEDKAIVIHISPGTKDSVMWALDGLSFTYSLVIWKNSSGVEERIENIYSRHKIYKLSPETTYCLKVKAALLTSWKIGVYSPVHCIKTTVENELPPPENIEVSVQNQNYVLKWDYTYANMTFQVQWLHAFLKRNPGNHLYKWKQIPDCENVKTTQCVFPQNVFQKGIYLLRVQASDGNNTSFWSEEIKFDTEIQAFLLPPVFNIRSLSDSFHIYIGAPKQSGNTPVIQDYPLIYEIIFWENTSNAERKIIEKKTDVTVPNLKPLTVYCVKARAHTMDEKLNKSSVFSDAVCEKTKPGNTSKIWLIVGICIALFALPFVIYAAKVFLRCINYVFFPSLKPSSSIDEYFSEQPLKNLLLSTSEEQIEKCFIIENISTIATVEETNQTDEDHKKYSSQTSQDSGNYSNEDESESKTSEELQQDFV
T1 sequence (looked up) 2: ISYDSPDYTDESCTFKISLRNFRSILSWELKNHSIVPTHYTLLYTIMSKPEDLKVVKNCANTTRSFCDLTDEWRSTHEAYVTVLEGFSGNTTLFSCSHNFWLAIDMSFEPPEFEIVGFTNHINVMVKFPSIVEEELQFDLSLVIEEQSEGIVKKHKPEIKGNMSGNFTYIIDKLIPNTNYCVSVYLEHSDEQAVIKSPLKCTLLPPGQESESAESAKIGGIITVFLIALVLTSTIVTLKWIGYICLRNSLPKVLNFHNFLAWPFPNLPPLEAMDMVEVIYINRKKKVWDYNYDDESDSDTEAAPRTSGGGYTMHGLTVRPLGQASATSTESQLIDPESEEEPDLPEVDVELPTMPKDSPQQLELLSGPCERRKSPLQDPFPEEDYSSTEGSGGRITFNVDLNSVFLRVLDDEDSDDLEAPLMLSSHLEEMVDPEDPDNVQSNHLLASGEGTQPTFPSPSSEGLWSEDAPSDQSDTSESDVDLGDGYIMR
Test: cell-based or functional assay

binder: 14epi16 (ligand) CDLPQTHSLGHRRTMMLLAQMRRISLFSCLKDRHDFRFPQEEFDGNHLQKVQAIALFYEMMQQTFNLFSTKDSSAAWDETLLEKFYIELFQQMNDLEACVMQEVGVEETPLMNVDSILAVRKYFQRITLYLTEKKYSPCAWEVVRAEIMRSFSFSTNLQESLRSKE
result: > 8 fold

For record 14epi20 (ligand) CDLPQTHSLGHRRTMMLLAQMRRISLFSCLKDRHDFRFPQEEFDGNHAQKVQAISLFYEMMQQTFNLFSTKDSSAAWDETLLEKFYIELFQQMNDLEACVMQEVGVEETPLMNVDSILAVRKYFQRITLYLTEKKYSPCAWEVVRAEIMRSFSFSTNLQESLRSKE the listed HuH7/EMCV Antiviral activity relative to huIFN-alpha 2b is > 8 fold
